test system: SF-295 CNS; experiment: NCI tumour cell line growth inhibition, 48 h
Would you kindly list GI50 for each of these compounds?

Incoming: Find GI50 (SF-295 CNS) for the entry O=C1c2ccccc2C(=O)c2c1ccc1[nH]c(CCl)nc21
Outgoing: 7.99 µM

Incoming: Also, Cc1c(N2C(=O)/C(=C\c3ccccc3O)N=C2c2ccccc2)c(=O)n(-c2ccccc2)n1C please.
Outgoing: 26.2 µM

Incoming: Also, Clc1cccc(NC=Nc2ccc(-c3nc4ccccc4s3)cc2)c1 please.
Outgoing: 17.4 µM

Incoming: Also, OC(c1cccc(C(F)(F)F)c1)c1cnccc1NC1CCCCCC1 (stereo unspecified) please.
Outgoing: 1.52 µM

Incoming: Also, N#Cc1nc(-c2ccc(F)cc2)oc1S(=O)(=O)N1CCOCC1 please.
Outgoing: 16.1 µM

Incoming: Also, COc1nc2c(cc1S(=O)(=O)c1ccccc1)CCc1c-2cnn1-c1ccccc1Cl please.
Outgoing: 5.72 µM

====

system: MDA-MB-435; experiment: NCI tumour cell line growth inhibition, 48 h
Would you kindly list TGI for each of these compounds?

Incoming: Which TGI value belongs to COc1cccc(-c2nc(-c3cnccn3)n(Cc3ccccc3)n2)c1 ?
Outgoing: > 100 µM

Incoming: Also, Cc1c(Cl)cccc1Nc1ncccc1C(=O)O please.
Outgoing: > 100 µM

Incoming: Also, CC1=C2c3ccccc3N(C(=O)/C=C/C(=O)O)[C@H]2[C@H]2C(=O)OC(=O)[C@H]2C1 please.
Outgoing: > 10 µM

Incoming: Also, CC(C)CCNC(=O)c1ccc(CNC(=O)/C=C/c2ccc(OCc3ccccc3)cc2)cc1 please.
Outgoing: > 100 µM

Incoming: Also, Cc1nc2cc(C(F)(F)F)ccc2[nH]c1=O please.
Outgoing: > 100 µM

Incoming: Also, O=C(O)CNC(=O)c1ccc([As](=O)(O)O)cc1 please.
Outgoing: > 100 µM

====

test system: SNB-75 CNS; experiment: NCI tumour cell line growth inhibition, 48 h; in the data active means GI50 below about 0.43 µM; inactive means the rest
Where a SMILES comes first, the peptide text is derived from it. [ ]: non-standard residue; d: D form. The star is where a group is joined. Bn2Val = CC(C)[C@@H](C(=O)*)N(Cc1ccccc1)Cc1ccccc1; NH(3,4-diMeO-benzyl) = COc1ccc(CN*)cc1OC; NMeV = CN[C@H](C(=O)O)C(C)C; dNMeA = CN[C@H](C)C(=O)O
Please reply with one of these outcomes: yes = active, no = inactive

Incoming: For COC(=O)[C@@H](C)C[C@H](Cc1ccccc1)NC(=O)c1nc([C@@H](C[C@H](C(C)C)N(C)C(=O)[C@@H](NC(=O)[C@H]2CCCN2C)C(C)C)OC(C)=O)sc1C , what call appears in the results of this test?
Outgoing: yes

Incoming: Also, COc1cc2c(c(OC)c1OC)-c1ccc(NCc3ccccc3)c(=O)cc1[C@@H](NC(C)=O)CC2 please.
Outgoing: yes

Incoming: Also, ClCc1ccccc1CSc1ncnc2nc[nH]c12 please.
Outgoing: no

Incoming: Also, O=C1c2ccccc2-c2c1c1cc3c(cc1c(=O)n2CCCCl)OCO3 please.
Outgoing: no

Incoming: Also, CC1=C(CCCOC(=O)NCCCl)C2=C(C)C3(CC3)[C@@](C)(O)C(=O)C2=C1 please.
Outgoing: no

Incoming: Also, NNC(=O)c1cnn(-c2ccnc3c(C(F)(F)F)cccc23)c1N please.
Outgoing: no

Incoming: Also, CNC(=O)c1cc(Oc2ccc3c(c2)sc2nc(-c4ccc(N)cc4)cn23)ccn1 please.
Outgoing: yes

Incoming: Also, N#Cc1nc(-c2ccc(F)cc2)oc1S(=O)(=O)N1CCOCC1 please.
Outgoing: no

Incoming: Also, COc1ccc(CNC(=O)[C@@H](C)N(C)C(=O)[C@@H]2CCCN2C(=O)[C@H](C(C)C)N(C)C(=O)[C@@H](NC(=O)[C@H](C(C)C)N(Cc2ccccc2)Cc2ccccc2)C(C)C)cc1OC (Bn2Val-V[NMeV]P[dNMeA]-{NH(3,4-diMeO-benzyl)}) please.
Outgoing: no

Incoming: Also, CN1CCN(Cc2ccc(NC(=O)c3cncc(C#Cc4cnc(N)c5ccccc45)c3)cc2C(F)(F)F)CC1 please.
Outgoing: no

Incoming: Also, CN=C1NC(=O)/C(=C/c2ccc3ncccc3c2)S1 please.
Outgoing: no

Incoming: Also, Cn1cc(C2=C(c3ccc(OC[C@@H](O)CO)cc3)C(=O)NC2=O)c2ccccc21 please.
Outgoing: no

Incoming: Also, CN(C)CCNc1nc2ccccc2c2[nH]c3ccccc3c12 please.
Outgoing: no

====

system: RPMI-8226 leukemia; assay: NCI tumour cell line growth inhibition, 48 h
reported.metric: TGI

Incoming: Which TGI value belongs to CN=C1NC(=O)/C(=C/c2ccc3ncccc3c2)S1 ?
Outgoing: > 25 µM

Incoming: Also, O=c1nc2c(c(-c3cccc(Cl)c3)[nH]1)COC/C2=C\c1cccc(Cl)c1 please.
Outgoing: > 100 µM

Incoming: Also, Cc1cc(C)nc(NS(=O)(=O)c2ccc(NC(=O)c3cccc4c(=O)c5ccccc5[nH]c34)cc2)n1 please.
Outgoing: 83 µM

Incoming: Also, O=C(Nc1ccccc1[N+](=O)[O-])c1ccccc1 please.
Outgoing: > 100 µM

Incoming: Also, Cc1cccc(C(C)(C)C)c1NC(=O)C(=O)Cc1nc2ccccc2s1 please.
Outgoing: > 100 µM

Incoming: Also, CN(C)c1ccc(/C(Br)=C2\OC(=O)c3ccccc32)cc1 please.
Outgoing: 71.7 µM

Incoming: Also, O=C(Cc1ccc(/C=C/C(=O)c2ncc[nH]2)cc1)Nc1ccc(Cl)cc1 please.
Outgoing: 3.92 µM

Incoming: Also, O=C(OCc1ccccc1)OOC(=O)OCc1ccccc1 please.
Outgoing: > 100 µM

====

system: T-47D breast; assay: NCI tumour cell line growth inhibition, 48 h
Would you kindly list TGI for each of these compounds?
Write the value in µM as a bare number.

Incoming: Which TGI value belongs to COc1ccccc1NC(=O)c1ccc(/C=C/C(=O)c2nccn2C)cc1 ?
Outgoing: 2.58

Incoming: Also, CCn1c(=O)c2c3cc(O)ccc3oc2c2ccc(O)cc21 please.
Outgoing: 36.5

Incoming: Also, COc1cc2c(c(OC)c1OC)-c1ccc(NCc3ccccc3)c(=O)cc1[C@@H](NC(C)=O)CC2 please.
Outgoing: 41.5

====

test system: HOP-92 NSCLC; test: NCI tumour cell line growth inhibition, 48 h
reported.metric: TGI

Incoming: Which TGI value belongs to O=C1NC(=S)NC(=O)C1C(c1ccccc1[N+](=O)[O-])C1C(=O)NC(=S)NC1=O ?
Outgoing: > 100 µM

Incoming: Also, O=C1NC(=O)C2C(=O)NC(=O)C1C2(c1ccccc1)c1ccc(Cl)cc1 (stereo not drawn) please.
Outgoing: > 100 µM

Incoming: Also, CCOC(=O)C(=O)N1C(C)=C(C(=O)OCC)CC(C(=O)OCC)=C1C please.
Outgoing: > 100 µM

====

tested on: NCI-H522 lung; assay: NCI tumour cell line growth inhibition, 48 h
Would you kindly list TGI for each of these compounds?

Incoming: Which TGI value belongs to CC1=C2c3ccccc3N(C(=O)/C=C/C(=O)O)[C@H]2[C@H]2C(=O)OC(=O)[C@H]2C1 ?
Outgoing: > 10 µM

Incoming: Also, Cc1cccc(N(CCC#N)S(=O)(=O)c2ccccc2)c1 please.
Outgoing: > 100 µM

Incoming: Also, Cn1cc(C2=C(c3ccc(OC[C@@H](O)CO)cc3)C(=O)NC2=O)c2ccccc21 please.
Outgoing: > 25 µM

Incoming: Also, COC(=O)C(CC(=O)c1cc2c(cc1I)OCO2)Cc1cc(OC)c(OC)c(OC)c1I (configuration not stated) please.
Outgoing: > 100 µM

Incoming: Also, COc1ccc(N=Cc2cc(OC)c(OC)c(OC)c2)cc1 please.
Outgoing: > 100 µM

Incoming: Also, O=C(O/N=C1/CCC/C1=C\c1ccccc1)c1ccc([N+](=O)[O-])cc1 please.
Outgoing: > 100 µM

Incoming: Also, CC(=O)CC(=O)c1cc2c(=O)oc(C)cc2oc1=O please.
Outgoing: > 37.5 µM

====

system: SF-539 CNS; experiment: NCI tumour cell line growth inhibition, 48 h
Would you kindly list TGI for each of these compounds?

Incoming: Which TGI value belongs to Cc1ccc(C2=Nc3c(c(C)nn3-c3ccccc3)N=C(C(=O)O)C2)cc1 ?
Outgoing: > 10 µM

Incoming: Also, C=C1CC(OC)(C(O)C(=O)N[C@H]2OCO[C@H]3C2O[C@H](C[C@@H](COC)OC)C(C)(C)C3OC)O[C@H](C)[C@@H]1C (some centres not stated) please.
Outgoing: < 0.00482 µM

Incoming: Also, CN(C)S(=O)(=O)Nc1ccccn1 please.
Outgoing: > 100 µM

Incoming: Also, CC1=C2c3ccccc3N(C(=O)/C=C/C(=O)O)[C@H]2[C@H]2C(=O)OC(=O)[C@H]2C1 please.
Outgoing: > 10 µM

Incoming: Also, CCC1CCC2CCCC(C)N12 (configuration not stated) please.
Outgoing: > 100 µM

Incoming: Also, Cc1cccc(N(CCC#N)S(=O)(=O)c2ccccc2)c1 please.
Outgoing: > 100 µM

Incoming: Also, O=C1C(C=NCCc2c[nH]c3ccccc23)C(C(F)(F)F)=NN1c1nc2ccccc2s1 (configuration not stated) please.
Outgoing: 86.4 µM

Incoming: Also, CCOC(=O)C(=O)N1C(C)=C(C(=O)OCC)CC(C(=O)OCC)=C1C please.
Outgoing: > 100 µM

Incoming: Also, O=[N+]([O-])c1ccc(NSc2ccccc2)cc1 please.
Outgoing: 44.6 µM

Incoming: Also, COC(=O)C(CC(=O)c1cc2c(cc1I)OCO2)Cc1cc(OC)c(OC)c(OC)c1I (configuration not stated) please.
Outgoing: > 100 µM

Incoming: Also, O=C(Cc1ccc(/C=C/C(=O)c2ncc[nH]2)cc1)Nc1ccc(Cl)cc1 please.
Outgoing: 7.03 µM

Incoming: Also, O=C1C(Cl)N(c2ccccc2)C1c1c[nH]c2ccccc12 (configuration not stated) please.
Outgoing: > 100 µM
